# EC50 per record follows
Biological target: Cynomolgus monkey CTGF-Fc (cynomolgus monkey)
Sequence (P29279 other isoform, or with tags, fused parts or gaps limits assumed): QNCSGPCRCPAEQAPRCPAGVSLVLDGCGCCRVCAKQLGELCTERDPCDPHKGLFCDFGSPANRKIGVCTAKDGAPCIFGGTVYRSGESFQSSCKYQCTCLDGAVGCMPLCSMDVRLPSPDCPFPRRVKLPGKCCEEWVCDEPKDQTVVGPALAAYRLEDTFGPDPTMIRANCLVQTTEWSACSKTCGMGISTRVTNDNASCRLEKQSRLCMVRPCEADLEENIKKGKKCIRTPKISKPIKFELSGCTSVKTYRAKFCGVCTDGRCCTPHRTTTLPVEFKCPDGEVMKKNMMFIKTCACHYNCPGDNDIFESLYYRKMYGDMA
Experiment: ELISA, cyno-CTGF-mFc captured by anti-mFc

>  <binder>
Hu164-87wl (antibody, human IgG1, lambda, V domains shown) VH: EVQLQESGPGLVKPSQTLSLTCTVSGFSISTFGVHWIRQHPGKGLEWLGVIWRRGGTDYNAAFMSRLTISKDTSKNQVSFKLSSVTAADTAVYYCARDGGFDYWGQGTTVTVSS VL: ETVVTQEPSLTVSPGGTVTLTCRSSIGAVTTSNYANWVQQKPGQAFRGLIGGTSNRAPWTPARFSGSLLGGKAALTLSGVQPEDEAEYYCALWYSTHYVFGGGTKLTVLG

>  <unit>
nM

>  <EC50>
0.034

$$$$
>  <binder>
Hu147-22wk (antibody, human IgG1, kappa, V domains shown) VH: EVQLVESGGGLVQPGGSLRLSCAASGFTFNTYAMNWVRQAPGKGLEWVARIRTKSNNYATYYADSVKDRFTISRDDSKNSLYLQMNSLKTEDTAVYYCVETGFAYWDQGTLVTVSS VL: EIVLTQSPATLSLSPGERATLSCSASSSVSYMHWFQQKPGQSPKLLIYSTSNLASGIPARFSGSGSGTDYTLTISSLEPEDFAVYYCQQRSSYPLTFGQGTKLEIKR

>  <unit>
nM

>  <EC50>
0.073

$$$$
>  <binder>
Hu147-32wk (antibody, human IgG1, kappa, V domains shown) VH: EVQLVESGGGLVQPGGSLRLSCAASGFSFNTYAMNWVRQAPGKGLEWVARIRTKSNNYATYYADSVKDRFTISRDDSESSLYLQMNSLKTEDTAVYYCVETGFAYWDQGTLVTVSS VL: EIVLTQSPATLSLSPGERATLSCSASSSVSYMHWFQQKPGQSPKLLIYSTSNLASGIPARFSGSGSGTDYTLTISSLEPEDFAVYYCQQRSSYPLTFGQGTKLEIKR

>  <unit>
nM

>  <EC50>
0.079

$$$$
